- target_or_test_system: FES (human)
- assay_text: KINOMEscan competition binding
- applied_conditions: compound 10.0 µM

molecule: CN1C(=O)c2ccccc2N(C)c2nc(Nc3ccc(N4CCC(O)CC4)cc3)ncc21
kinase still bound, per cent of control / %: 100
--
molecule: COc1cc(N2CCN(C)CC2)ccc1Nc1ncc2c(n1)N(C)c1ccccc1N(C)C2=O
kinase still bound, per cent of control / %: 100
--
molecule: O=C1NC(=O)/C(=C/c2c[nH]c(=O)c(-c3ccc(N4CCNCC4)nc3)c2)S1
kinase still bound, per cent of control / %: 100
--
molecule: COc1cc(N2CCN(C)CC2)ccc1Nc1ncc2c(n1)N(C1CCCC1)C(C)CC(=O)N2 (centres undefined)
kinase still bound, per cent of control / %: 26
--
molecule: COc1cc(N2CCC(O)CC2)ccc1Nc1ncc2c(n1)N1CCc3cccc(c31)C(=O)N2C
kinase still bound, per cent of control / %: 93
--
molecule: COc1cc(N2CCN(C)CC2)ccc1Nc1ncc2c(n1)Nc1ccccc1NC2=O
kinase still bound, per cent of control / %: 100
--
molecule: CN1C(=O)c2ccccc2N(C)c2nc(NS(=O)(=O)c3ccc(N)cc3)ncc21
kinase still bound, per cent of control / %: 90
--
molecule: CN1CCN(c2ccc(C(=O)Nc3ncc4c(n3)N(C)c3ccccc3C(=O)N4C)cc2)CC1
kinase still bound, per cent of control / %: 100
--
molecule: COc1cc(N2CCN(C)CC2)ccc1Nc1ncc2c(n1)N(C)c1sccc1C(=O)N2C
kinase still bound, per cent of control / %: 100

###

- target_or_test_system: PDPK1 (human)
- assay_text: KINOMEscan competition binding
- applied_conditions: compound 10.0 µM
parameter_measured: kinase still bound, per cent of control (%)

structure_string: O=C1NC(=O)/C(=C/c2c[nH]c(=O)c(-c3ccc(N4CCNCC4)nc3)c2)S1
value_reported: 100

structure_string: COc1cc(N2CCC(O)CC2)ccc1Nc1ncc2c(n1)N1CCc3cccc(c31)C(=O)N2C
value_reported: 100

structure_string: COc1cc(N2CCN(C)CC2)ccc1Nc1ncc2c(n1)N(C)c1sccc1C(=O)N2C
value_reported: 93

structure_string: CN1CCN(c2ccc(C(=O)Nc3ncc4c(n3)N(C)c3ccccc3C(=O)N4C)cc2)CC1
value_reported: 100

structure_string: CN1C(=O)c2ccccc2N(C)c2nc(Nc3ccc(N4CCC(O)CC4)cc3)ncc21
value_reported: 97

structure_string: COc1cc(N2CCN(C)CC2)ccc1Nc1ncc2c(n1)Nc1ccccc1NC2=O
value_reported: 82

structure_string: COc1cc(N2CCN(C)CC2)ccc1Nc1ncc2c(n1)N(C)c1ccccc1N(C)C2=O
value_reported: 79

structure_string: CN1C(=O)c2ccccc2N(C)c2nc(NS(=O)(=O)c3ccc(N)cc3)ncc21
value_reported: 100

###

- target_or_test_system: EPHB1 (human)
- assay_text: KINOMEscan competition binding
- applied_conditions: compound 10.0 µM

structure_string: O=C1NC(=O)/C(=C/c2c[nH]c(=O)c(-c3ccc(N4CCNCC4)nc3)c2)S1
target_or_test_system: EPHB1 (human)
value_units: %
kinase still bound, per cent of control: 95
--
structure_string: CN1C(=O)c2ccccc2N(C)c2nc(Nc3ccc(N4CCC(O)CC4)cc3)ncc21
target_or_test_system: EPHB1 (human)
value_units: %
kinase still bound, per cent of control: 100
--
structure_string: COc1cc(N2CCN(C)CC2)ccc1Nc1ncc2c(n1)N(C)c1ccccc1N(C)C2=O
target_or_test_system: EPHB1 (human)
value_units: %
kinase still bound, per cent of control: 100
--
structure_string: COc1cc(N2CCN(C)CC2)ccc1Nc1ncc2c(n1)Nc1ccccc1NC2=O
target_or_test_system: EPHB1 (human)
value_units: %
kinase still bound, per cent of control: 96
--
structure_string: COc1cc(N2CCC(O)CC2)ccc1Nc1ncc2c(n1)N1CCc3cccc(c31)C(=O)N2C
target_or_test_system: EPHB1 (human)
value_units: %
kinase still bound, per cent of control: 99
